- assayMethodText: Inhibition of Enterococcus faecalis OG1RF YycG autophosphorylation by Kinase-Glo luminescent kinase assay
measuredProperty: pIC50
// scale note: pIC50 = -log10(conc_M); give the bare number

## Task Fill in reported pIC50 for this entry: COc1cc(C2C(C(=O)c3cc4ccccc4o3)=C(O)C(=O)N2c2nnc(SCc3ccccc3Cl)s2)ccc1O (stereo not drawn)
## Result 5.21

## Task Fill in reported pIC50 for this entry: Cc1ccc(CSc2nnc(N3C(=O)C(O)=C(C(=O)c4cc5ccccc5o4)C3c3cccc(O)c3)s2)cc1 (stereo not drawn)
## Result 5.82

## Task Look up and state reported pIC50 for O=C(O)COc1ccc(/C=C2/SC(=O)N(Cc3ccc(F)cc3)C2=O)cc1Br
## Result 4.56

## Task Answer with the recorded pIC50 for the compound listed here: O=C(C1=C(O)C(=O)N(c2nnc(SCc3ccc(Cl)cc3)s2)C1c1cccc(O)c1)c1cc2ccccc2o1 (stereo not drawn)
## Result 5.08

## Task Return pIC50 for the following compound: O=C(C1=C(O)C(=O)N(c2nnc(SCc3ccccc3)s2)C1c1ccccc1)c1cc2ccccc2o1 (stereo not drawn)
## Result 4.66

## Task Dear colleague, please send me the reported pIC50 for CCOC(=O)c1c(CN2CCN(C)CC2)n(-c2ccccc2)c2ccc(OS(=O)(=O)c3ccc(C)cc3)cc12 when you can.
## Result 4.37
